From: patent US8546608B2

Here the recorded EC50 is given for each entry.
# assayTarget: proteasome in Molt-4 cells (human leukemia) (Homo sapiens, UniProt P20618+P28074)
# Sequence (P28074 60-263): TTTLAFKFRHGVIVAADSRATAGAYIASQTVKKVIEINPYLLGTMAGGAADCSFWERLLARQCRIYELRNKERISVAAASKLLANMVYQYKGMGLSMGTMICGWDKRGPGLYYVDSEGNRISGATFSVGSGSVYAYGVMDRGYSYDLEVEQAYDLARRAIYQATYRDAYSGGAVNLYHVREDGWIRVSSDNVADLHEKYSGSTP
# Sequence (P20618 29-241): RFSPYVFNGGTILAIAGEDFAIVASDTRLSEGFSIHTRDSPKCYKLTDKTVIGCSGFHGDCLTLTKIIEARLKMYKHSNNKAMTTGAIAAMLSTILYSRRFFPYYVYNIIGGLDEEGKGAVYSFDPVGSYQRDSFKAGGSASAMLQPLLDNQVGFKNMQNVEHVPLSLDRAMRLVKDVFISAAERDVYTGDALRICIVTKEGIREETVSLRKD
# Format: cell-based
# conditionSummary: assay of Example E, inhibition of MOLT4; read-out: MOLT4 (EC50)

Consider the worked cases shown below.
CC(C)C[C@H](NC(=O)[C@H](CCCNC(=N)N[N+](=O)[O-])NC(=O)c1ccc(-n2cccc2)cc1)B(O)O [D.7.27] : 2000 to 10000 nM
CCCCCCCCC(=O)N[C@@H](CCCNC(=N)N[N+](=O)[O-])C(=O)N[C@@H](CC(C)C)B(O)O [E.2.9] : 200 to 2000 nM
CC(C)C[C@H](NC(=O)[C@H](CCCNC(=N)N[N+](=O)[O-])NC(=O)/C=C/c1ccccc1Br)B(O)O [E.2.52] : 2000 to 10000 nM
COCCOCCOCC(=O)N[C@@H](CCCNC(=N)N[N+](=O)[O-])C(=O)N[C@@H](CC(C)C)B(O)O [E.1.8] : > 10000 nM
CCCCC(C(=O)N[C@@H](CCCNC(=N)N[N+](=O)[O-])C(=O)N[C@@H](CC(C)C)B(O)O)C1CCCC1 (mixture of isomers) [E.2.59] : 2000 to 10000 nM
CCCCCC(=O)N[C@H](C(=O)N[C@@H](CC(C)C)B1O[C@@H]2C[C@@H]3C[C@@H](C3(C)C)[C@]2(C)O1)[C@@H](C)O [D.3.178] : < 200 nM

The recorded EC50 for CC(C)C[C@H](NC(=O)[C@H](CCCNC(=N)N[N+](=O)[O-])NC(=O)c1ccc(Br)cc1)B(O)O [D.7.39] is 2000 to 10000 nM

* * *

Here the recorded IC50 is given for each entry.
# assayTarget: 20S Human Erythrocyte Proteasome (HEP) (Homo sapiens, UniProt P20618+P28074)
# Construct: 20S Human Erythrocyte Proteasome (HEP), purchased from Immatics Biotechnologies Inc
# assayDetails: Chymotrypsin-like activity of 20S Human Erythrocyte Proteasome (HEP), IC50 determination
# conditionSummary: assay of Example C, inhibition of HEP
Counter-ions that a name gives are not always drawn.

Consider the worked cases shown below.
CC(C)C[C@H](NC(=O)[C@H](CCCNC(=N)N[N+](=O)[O-])NC(=O)Cc1ccccc1Cl)B(O)O [E.1.13, HCl salt] : < 10 nM
CC(C)C[C@H](NC(=O)[C@H](CCCNC(=N)N[N+](=O)[O-])NC(=O)CSc1ccc2ccccc2c1)B(O)O [E.2.58] : < 10 nM

Kindly note: 20S Human Erythrocyte Proteasome (HEP) (Homo sapiens, UniProt P20618+P28074), COCCOCCOCC(=O)N[C@@H](CCCNC(=N)N[N+](=O)[O-])C(=O)N[C@@H](CC(C)C)B1O[C@@H]2C[C@@H]3C[C@@H](C3(C)C)[C@]2(C)O1 [D.1.7] , IC50 value reported: < 100 nM

* * *

Here the recorded EC50 is given for each entry.
# assayTarget: proteasome in Molt-4 cells (human leukemia) (Homo sapiens, UniProt P20618+P28074)
# Format: cell-based
# conditionSummary: assay of Example E, inhibition of MOLT4; read-out: MOLT4 (EC50)

Consider the worked cases shown below.
CCCCCCCCC(=O)N[C@@H](CCCNC(=N)N[N+](=O)[O-])C(=O)N[C@@H](CC(C)C)B1O[C@@H]2C[C@@H]3C[C@@H](C3(C)C)[C@]2(C)O1 [D.3.15] : < 0.2 µM
CCS(=O)(=O)NCCCCCC(=O)N[C@@H](CCCNC(=N)N[N+](=O)[O-])C(=O)N[C@@H](CC(C)C)B1O[C@@H]2C[C@@H]3C[C@@H](C3(C)C)[C@]2(C)O1 [D.1.14] : > 10 µM
CC(C)C[C@H](NC(=O)[C@H](CCCNC(=N)N[N+](=O)[O-])NC(=O)Cc1ccccc1I)B(O)O [E.2.13] : 2 to 10 µM
CCCCc1ccc(C(=O)N[C@@H](CNC(=O)Nc2ccccc2)C(=O)N[C@@H](CC(C)C)B(O)O)cc1 [E.5.19] : < 0.2 µM

Kindly note: proteasome in Molt-4 cells (human leukemia) (Homo sapiens, UniProt P20618+P28074), Cc1cc(C(=O)NC[C@H](NC(=O)c2ccc(Oc3ccccc3)cc2)C(=O)N[C@@H](CC(C)C)B(O)O)n(C)n1 [E.5.31] , EC50 value reported: < 0.2 µM

Kindly note: proteasome in Molt-4 cells (human leukemia) (Homo sapiens, UniProt P20618+P28074), CCCCCCCCCCCC(=O)N[C@@H](CCCNC(=N)N[N+](=O)[O-])C(=O)N[C@@H](CC(C)C)B(O)O [E.2.12] , EC50 value reported: < 0.2 µM

Kindly note: proteasome in Molt-4 cells (human leukemia) (Homo sapiens, UniProt P20618+P28074), COc1ccc(C(=O)N[C@@H](CCCNC(=N)N[N+](=O)[O-])C(=O)N[C@@H](CC(C)C)B2O[C@@H]3C[C@@H]4C[C@@H](C4(C)C)[C@]3(C)O2)cc1F [D.3.94] , EC50 value reported: < 0.2 µM

Kindly note: proteasome in Molt-4 cells (human leukemia) (Homo sapiens, UniProt P20618+P28074), CCCCC(C)(C)C(=O)N[C@@H](CCCNC(=N)N[N+](=O)[O-])C(=O)N[C@@H](CC(C)C)B(O)O [D.7.21] , EC50 value reported: 2 to 10 µM

Kindly note: proteasome in Molt-4 cells (human leukemia) (Homo sapiens, UniProt P20618+P28074), CC(C)C[C@H](NC(=O)[C@H](CCCNC(=N)N[N+](=O)[O-])NC(=O)C1CCC(C(C)(C)C)CC1)B(O)O (stereo partly shown) [E.2.5] , EC50 value reported: 2 to 10 µM

Kindly note: proteasome in Molt-4 cells (human leukemia) (Homo sapiens, UniProt P20618+P28074), CC(C)C[C@H](NC(=O)[C@H](CCCNC(=N)N[N+](=O)[O-])NC(=O)C1CCCCC1C)B(O)O (stereo partly shown) [E.2.20] , EC50 value reported: 2 to 10 µM

Kindly note: proteasome in Molt-4 cells (human leukemia) (Homo sapiens, UniProt P20618+P28074), CCCCc1ccc(C(=O)N[C@@H](CNC(=O)c2ccc(C)cc2)C(=O)N[C@@H](CC(C)C)B(O)O)cc1 [E.5.5] , EC50 value reported: < 0.2 µM

Kindly note: proteasome in Molt-4 cells (human leukemia) (Homo sapiens, UniProt P20618+P28074), CCCCCCCCCCCNC(=O)N[C@H](C(=O)N[C@@H](CC(C)C)B(O)O)[C@@H](C)O [E.1.24] , EC50 value reported: < 0.2 µM

Kindly note: proteasome in Molt-4 cells (human leukemia) (Homo sapiens, UniProt P20618+P28074), CCCCc1ccc(C(=O)N[C@@H](CNS(C)(=O)=O)C(=O)N[C@@H](CC(C)C)B2O[C@@H]3C[C@@H]4C[C@@H](C4(C)C)[C@]3(C)O2)cc1 [D.24.4] , EC50 value reported: < 0.2 µM

* * *

# assayTarget: 20S Human Erythrocyte Proteasome (HEP) (Homo sapiens, UniProt P20618+P28074)
# Construct: 20S Human Erythrocyte Proteasome (HEP), purchased from Immatics Biotechnologies Inc
# assayDetails: Chymotrypsin-like activity of 20S Human Erythrocyte Proteasome (HEP), IC50 determination
# conditionSummary: assay of Example C, inhibition of HEP
Here the recorded IC50 is given for each entry.

CC(C)C[C@H](NC(=O)[C@@H](NC(=O)c1ccc2ccccc2c1Br)[C@@H](C)O)B(O)O [E.1.25] : < 10 nM
Cc1cc(C(=O)N[C@@H](CCCNC(=N)N[N+](=O)[O-])C(=O)N[C@@H](CC(C)C)B(O)O)ccc1F [D.7.37] : < 10 nM
CC(C)C[C@H](NC(=O)[C@H](CCCNC(=N)N[N+](=O)[O-])NC(=O)C1(c2ccccc2)CCCC1)B(O)O [E.2.3] : < 10 nM
CCCCCCCCCC(=O)N[C@H](C(=O)N[C@@H](CC(C)C)B(O)O)[C@@H](C)O [E.1.17] : < 10 nM
CC(C)C[C@H](NC(=O)[C@H](CCCNC(=N)N[N+](=O)[O-])NC(=O)CCCCCCCCCCCNC(=O)OC(C)(C)C)B1O[C@@H]2C[C@@H]3C[C@@H](C3(C)C)[C@]2(C)O1 [D.2.4] : < 10 nM
CCCCc1ccc(C(=O)N[C@@H](CCCNC(=N)N[N+](=O)[O-])C(=O)N[C@@H](CC(C)C)B2O[C@@H]3C[C@@H]4C[C@@H](C4(C)C)[C@]3(C)O2)cc1 [D.1.4] : < 10 nM
CCCCCCCCCC(=O)N[C@@H](CCCNC(=N)N[N+](=O)[O-])C(=O)N[C@@H](CC(C)C)B1O[C@@H]2C[C@@H]3C[C@@H](C3(C)C)[C@]2(C)O1 [D.3.1] : < 10 nM
CCCCCCCCCC(=O)N[C@@H](CNC(=O)Cc1ccc(OC)c(OC)c1)C(=O)N[C@@H](CC(C)C)B1O[C@@H]2C[C@@H]3C[C@@H](C3(C)C)[C@]2(C)O1 [D.12] : < 10 nM
CC(C)C[C@H](NC(=O)[C@H](CCCNC(=N)N[N+](=O)[O-])NC(=O)c1ccc(-n2cccc2)cc1)B1O[C@@H]2C[C@@H]3C[C@@H](C3(C)C)[C@]2(C)O1 [D.3.64] : < 10 nM
CC(C)C[C@H](NC(=O)[C@H](CCCNC(=N)N[N+](=O)[O-])NC(=O)/C=C/c1ccc(Br)cc1)B(O)O [D.7.32] : < 10 nM

The recorded IC50 for CCCCCCCCCCC(=O)N[C@@H](CCCNC(=N)N[N+](=O)[O-])C(=O)N[C@@H](CC(C)C)B(O)O [D.7.41] is < 10 nM

The recorded IC50 for CCCCCC(=O)N[C@H](C(=O)N[C@@H](CC(C)C)B1O[C@@H]2C[C@@H]3C[C@@H](C3(C)C)[C@]2(C)O1)[C@@H](C)O [D.3.178] is < 100 nM

The recorded IC50 for Cc1ccc(C(=O)N[C@@H](CCCNC(=N)N[N+](=O)[O-])C(=O)N[C@@H](CC(C)C)B(O)O)s1 [D.7.12] is < 10 nM

The recorded IC50 for CC(C)C[C@H](NC(=O)[C@@H](NC(=O)c1ccc(Oc2ccccc2)cc1)[C@@H](C)O)B(O)O [E.3.7] is < 10 nM

The recorded IC50 for CC(C)C[C@H](NC(=O)[C@H](CCCNC(=N)N[N+](=O)[O-])NC(=O)c1cnccn1)B1O[C@@H]2C[C@@H]3C[C@@H](C3(C)C)[C@]2(C)O1 [D.1.2] is < 100 nM

The recorded IC50 for CC(C)C[C@H](NC(=O)[C@H](CCCNC(=N)N[N+](=O)[O-])NC(=O)/C=C/c1ccccc1Br)B(O)O [E.2.52] is < 10 nM

The recorded IC50 for CCCCCCCCC(=O)N[C@@H](CCCNC(=N)N[N+](=O)[O-])C(=O)N[C@@H](CC(C)C)B(O)O [E.2.9] is < 10 nM

The recorded IC50 for CCCCCCCCCCCCC(=O)N[C@H](C(=O)N[C@@H](CC(C)C)B1O[C@@H]2C[C@@H]3C[C@@H](C3(C)C)[C@]2(C)O1)[C@@H](C)O [D.8.5] is < 10 nM

The recorded IC50 for CC(C)C[C@H](NC(=O)[C@H](CCCNC(=N)N[N+](=O)[O-])NC(=O)CS(=O)(=O)c1ccccc1)B1O[C@@H]2C[C@@H]3C[C@@H](C3(C)C)[C@]2(C)O1 [D.3.185] is < 10 nM

The recorded IC50 for CC(C)C[C@H](NC(=O)[C@@H](NC(=O)c1ccc2ccccc2c1)[C@@H](C)O)B(O)O [E.3.1] is < 10 nM

The recorded IC50 for CC(C)C[C@H](NC(=O)[C@H](CCCNC(=N)N[N+](=O)[O-])NC(=O)CCSc1ccc2ccccc2c1)B(O)O [E.2.48] is < 10 nM

The recorded IC50 for CC(C)C[C@H](NC(=O)[C@H](CCCNC(=N)N[N+](=O)[O-])NC(=O)C1CC2CCC1C2)B(O)O (some centres unmarked) [E.2.25] is < 10 nM
